Entries and their measured Activity follow.
System: Phytophthora cactorum
experiment_notes: Effect on Phytophthora cactorum growth assessed as colony diameter at 10 mg/L after 6 days in solid culture medium
Assay type: functional

# count of solved cases: 3
CC1(C)CC[C@]2(C(=O)O)CC[C@]3(C)C(=CC[C@@H]4[C@@]5(C)CC[C@H](O)C(C)(C)[C@@H]5CC[C@]43C)[C@@H]2C1 ... 29 mm
CC(=O)OC(C)(C)/C=C/C(=O)[C@](C)(O)[C@H]1[C@H](O)C[C@@]2(C)[C@@H]3CC=C4[C@@H](CC[C@@H](O)C4(C)C)[C@]3(CO)C(=O)C[C@]12C ... 28 mm
CC(C)=CCC[C@@H](C)[C@H]1CC[C@@]2(C)[C@@H]3CC[C@H]4C(C)(C)[C@@H](O)CC[C@@]45C[C@@]35CC[C@]12C ... 31 mm

Using the record for "CC1(C)CC[C@]2(C)CC[C@]3(C)C(=CC[C@@H]4[C@@]5(C)CC[C@H](O)C(C)(C)[C@@H]5CC[C@]43C)[C@@H]2C1" , report its Activity.
35 mm

Using the record for "CC[C@H](CC[C@@H](C)[C@H]1CC[C@H]2[C@@H]3CC=C4C[C@@H](O)CC[C@]4(C)[C@H]3CC[C@]12C)C(C)C" , report its Activity.
35 mm
